biological target: cloned human NR1/NR2B ion channels (Homo sapiens (Human), UniProt Q05586+Q13224); assay: HNR2BC: effects of test articles on cloned human NR1/NR2B ion channels expressed in mammalian cells (FLIPR calcium flux); type: cell-based; details: cloned human NR1/NR2B ion channels, Table 5
Sequence (Q13224 27-1484, other chains not shown): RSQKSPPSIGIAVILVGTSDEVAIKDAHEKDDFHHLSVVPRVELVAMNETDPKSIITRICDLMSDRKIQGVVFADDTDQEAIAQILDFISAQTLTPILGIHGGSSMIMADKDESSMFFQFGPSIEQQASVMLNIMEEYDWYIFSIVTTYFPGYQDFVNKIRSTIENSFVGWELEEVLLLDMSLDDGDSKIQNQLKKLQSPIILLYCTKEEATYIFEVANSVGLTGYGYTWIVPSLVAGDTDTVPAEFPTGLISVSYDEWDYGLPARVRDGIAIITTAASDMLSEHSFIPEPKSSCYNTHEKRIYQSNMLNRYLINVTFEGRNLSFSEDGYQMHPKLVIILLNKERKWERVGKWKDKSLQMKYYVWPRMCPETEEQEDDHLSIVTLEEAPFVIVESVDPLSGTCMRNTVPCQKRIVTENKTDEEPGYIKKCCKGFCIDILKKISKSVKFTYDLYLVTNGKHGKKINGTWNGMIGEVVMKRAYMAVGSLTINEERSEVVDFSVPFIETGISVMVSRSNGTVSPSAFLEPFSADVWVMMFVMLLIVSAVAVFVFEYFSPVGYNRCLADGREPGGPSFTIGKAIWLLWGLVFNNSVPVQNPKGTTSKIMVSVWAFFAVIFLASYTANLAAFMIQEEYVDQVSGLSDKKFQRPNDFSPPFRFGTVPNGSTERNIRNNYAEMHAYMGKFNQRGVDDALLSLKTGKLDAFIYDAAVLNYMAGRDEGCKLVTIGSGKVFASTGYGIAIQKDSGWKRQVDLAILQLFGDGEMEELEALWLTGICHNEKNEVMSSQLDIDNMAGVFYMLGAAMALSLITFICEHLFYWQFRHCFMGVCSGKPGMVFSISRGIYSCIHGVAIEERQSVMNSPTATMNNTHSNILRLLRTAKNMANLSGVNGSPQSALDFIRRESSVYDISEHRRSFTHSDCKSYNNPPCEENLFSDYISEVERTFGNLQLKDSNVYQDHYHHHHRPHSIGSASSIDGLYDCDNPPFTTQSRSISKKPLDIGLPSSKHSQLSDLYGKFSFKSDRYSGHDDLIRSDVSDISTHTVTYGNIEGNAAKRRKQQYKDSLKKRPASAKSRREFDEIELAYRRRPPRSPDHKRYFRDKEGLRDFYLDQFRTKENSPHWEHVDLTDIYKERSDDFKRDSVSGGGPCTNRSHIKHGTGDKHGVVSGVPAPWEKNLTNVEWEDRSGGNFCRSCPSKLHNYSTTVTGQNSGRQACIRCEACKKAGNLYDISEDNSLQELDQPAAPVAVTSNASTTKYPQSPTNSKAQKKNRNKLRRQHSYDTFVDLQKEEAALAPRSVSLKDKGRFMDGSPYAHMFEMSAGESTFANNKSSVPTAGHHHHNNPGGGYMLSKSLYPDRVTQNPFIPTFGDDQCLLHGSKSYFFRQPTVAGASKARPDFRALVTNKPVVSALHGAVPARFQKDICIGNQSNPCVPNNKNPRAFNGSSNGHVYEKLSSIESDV
Structures can show the parent of a compound that is named as a salt.
Attribute: pIC50
Note: pIC50 values are expressed as the negative base-10 logarithm of concentration in M.

# compound, meas_value
rows = [
    ("Cc1csc(-c2cnc3ccn(CC(=O)N4CCCC4)c3c2)c1 [Example 369]", 7.70),
    ("CCN(C)C(=O)Cn1ccc2ncc(-c3ccc(F)cc3)cc21 [Example 419]", 7.20),
]

Q: Indicate its recorded pIC50; the compound in question is Cc1cn(CC(=O)N2CCCC2)c2cc(-c3cccc(C(F)(F)F)c3)cnc12 [Example 567]
Ans: 6.70

Q: Give a short answer stating reported pIC50 for O=C(Cn1ccc2ncc(-c3ccccc3F)cc21)N1CC(F)C1 [Example 457] .
Ans: 7.80

Q: Recall and state the measured pIC50 for Cc1csc(-c2cnc3c(C)cn(CC(=O)N4CCC4)c3c2)c1 [Example 574] .
Ans: 7.10

Q: Indicate the recorded pIC50 value for this compound: O=C(Cn1ccc2ncc(-c3ccsc3)cc21)N1CCC1 [Example 385, trifluoroacetate salt]
Ans: 7.70

Q: Provide measured pIC50 value, entry: CN(C)C(=O)Cn1ccc2ncc(-c3ccc(F)cc3)cc21 [Example 430]
Ans: 7.20

Cited source for all entries: patent US10377753B2
